Assay: Inhibition of Rhizobium leguminosarum LpxC
Readout type: pKi
// returns pKi (minus log10 of molar concentration), number only

Task: Given the entry CCCc1cc(C2=N[C@@H](C(=O)NO)CO2)cc(OC)c1OC , report its measured pKi.
Output: 3.42

Task: Given the entry O=C(NO)[C@@H](Cc1ccc2ccccc2c1)NS(=O)(=O)c1ccc2ccccc2c1 , report its measured pKi.
Output: 5.24

###

Target: UDP-3-O-acyl-N-acetylglucosamine deacetylase (Rhizobium leguminosarum bv. trifolii (strain WSM1325), UniProt C6ARS9, S214G/W206Q)
Sequence (C6ARS9 as listed by the source W206Q/S214G): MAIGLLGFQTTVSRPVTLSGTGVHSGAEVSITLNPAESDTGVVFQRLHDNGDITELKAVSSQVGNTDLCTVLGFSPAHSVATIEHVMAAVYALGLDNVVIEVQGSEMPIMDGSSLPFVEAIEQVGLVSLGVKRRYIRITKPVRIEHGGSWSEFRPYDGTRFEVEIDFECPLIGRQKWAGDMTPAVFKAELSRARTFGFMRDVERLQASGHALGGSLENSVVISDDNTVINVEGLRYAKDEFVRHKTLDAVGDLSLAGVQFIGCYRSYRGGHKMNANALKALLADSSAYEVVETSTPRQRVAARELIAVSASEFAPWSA
Assay: Inhibition of Rhizobium leguminosarum LpxC W206Q/S214G mutant
So I've got a bunch of compounds here, and I need their pKi values.
// returns pKi (minus log10 of molar concentration), number only

Task: Given the entry CCCc1cc(C2=N[C@@H](C(=O)NO)CO2)cc(OC)c1OC , report its measured pKi.
Output: 3.96

Task: Given the entry O=C(NO)[C@@H](Cc1ccc2ccccc2c1)NS(=O)(=O)c1ccc2ccccc2c1 , report its measured pKi.
Output: 6.15
